Entry source: PubChem BioAssay AID1645864

target: UniProtKB A8MUK1; assay: ubiquitin-specific protease 17 DUB inhibitors, concentration-effect assay, cell-free, verification of initial screening actives (AID 1645864); details: purified USP17, ubiquitin-rhodamine cleavage fluorescence, 3 h
Sequence (A8MUK1 whole entry, looked up): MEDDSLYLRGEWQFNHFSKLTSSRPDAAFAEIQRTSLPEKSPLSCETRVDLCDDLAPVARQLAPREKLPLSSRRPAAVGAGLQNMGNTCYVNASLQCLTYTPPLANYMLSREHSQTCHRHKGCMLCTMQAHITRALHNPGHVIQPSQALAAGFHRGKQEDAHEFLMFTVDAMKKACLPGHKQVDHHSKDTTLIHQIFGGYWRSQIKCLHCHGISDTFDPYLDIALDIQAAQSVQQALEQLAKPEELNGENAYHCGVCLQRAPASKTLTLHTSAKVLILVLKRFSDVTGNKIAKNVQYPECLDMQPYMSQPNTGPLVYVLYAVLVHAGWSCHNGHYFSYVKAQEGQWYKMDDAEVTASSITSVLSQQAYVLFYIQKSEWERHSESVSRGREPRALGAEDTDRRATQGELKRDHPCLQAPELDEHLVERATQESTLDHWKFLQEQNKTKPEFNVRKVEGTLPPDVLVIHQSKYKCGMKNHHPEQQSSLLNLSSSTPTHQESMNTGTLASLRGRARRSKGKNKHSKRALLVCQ
Active and inactive are the calls of the source.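 Rule for the calls: active = maximal inhibition of USP17 at or above 30% in the confirmation dose-response, a value not among the printed readouts; inactive = the rest.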
Pick one and only one: active, inactive

GET /call?item= O=C(OCCCN1C(=O)c2cccc3c(N4CCCCC4)ccc(c23)C1=O)c1ccccn1 returns the recorded outcome of this test.
inactive

Check the results log: what was the call for O=C(CC1C(=O)Nc2nc(-c3ccccc3)nn21)Nc1cccc2ccccc12 (stereo not drawn) ?
active

Outcome logged for COCCN(C1CCN(CCc2ccc(Cl)cc2)CC1)S(=O)(=O)c1cccc2cccnc12 in this assay:
inactive

Can you look up the reported call for O=C(COc1cccc2ccc(N3CCC(Cc4ccccc4)CC3)nc12)NCc1ccc(F)cc1 for me?
active

Kindly provide the recorded test outcome for the following compound: Cc1ccc2cc3c(nc2n1)CCN(Cc1ccc(F)cc1)C3
inactive

How did this test come out for O=C(CN1CCCc2ccccc21)Nc1ccc(N2CCOCC2)cc1 ?
inactive

Which outcome did this test record for the compound O=C(COc1ccc(Cl)cc1Cl)Nc1ccccc1-c1nc2ccccc2[nH]1 ?
active

Fill in: this test's call for COCCCn1c(C(=O)NCCc2ccccc2)cc2c(=O)n3cccc(C)c3nc21 is ___
active
